organism: Rattus norvegicus; test: Open TG-GATES - Regimen: Daily Repeat; type: toxicity, organism-based, Sprague-Dawley; design: regimen Daily Repeat, gender Male, age 6 weeks; details: in vivo, po, 0 mg/kg, […], tissue Plasma, route gavage, dose level Control, time 28 day
OBSERVED PROPERTY: PL (mg/dL)
Dear colleague, please return just the value in mg/dL, with no unit written.

These recorded examples may help you get a feel for the data.
> print(dat)
                                   compound  observed.property  result.unit  experimental.result
1  COc1ccc2c(c1)c(CC(=O)O)c(C)n2C(=O)c1ccc(Cl)cc1 [INDOMETHACIN]                 PL        mg/dL                163.2
2  CN(C)CCC=C1c2ccccc2CCc2ccccc21 [AMITRIPTYLINE]                 PL        mg/dL                  138
3  NC(=O)N1c2ccccc2C=Cc2ccccc21 [CARBAMAZEPINE]                 PL        mg/dL                147.8
4  CSc1ccc2c(c1)N(CCC1CCCCN1C)c1ccccc1S2 (centres undefined) [THIORIDAZINE]                 PL        mg/dL                170.8
5          CCc1cc(C(N)=S)ccn1 [ETHIONAMIDE]                 PL        mg/dL                141.2

Reported PL, compound CC(=O)Oc1ccccc1C(=O)O [ASPIRIN] : ____
132.4

Quick one: O=C(O)c1cn(C2CC2)c2cc(N3CCNCC3)c(F)cc2c1=O [CIPROFLOXACIN]
150.6

Check Cn1c(=O)c2[nH]cnc2n(C)c1=O.O [THEOPHYLLINE] too.
140.6

Also need C[C@H](CS)C(=O)N1CCC[C@H]1C(=O)O [CAPTOPRIL] , thanks.
150
